Experiment: Dissolving capability: amount of solvent needed to completely dissolve 20 mg of compound
Type: physicochemical
Conditions: 20 mg compound, solvent chloroform, room temperature
Listed compounds paired with reported Amount of solvent required for completely dissolving the compound (Comp. Ex. 1)
Express your answer in µL, writing the number without its unit.

In the examples that follow, each entry is paired with its recorded Amount of solvent required for completely dissolving the compound (Comp. Ex. 1).
>>> recorded_value("Cc1ccc(S(=O)(=O)O[C@@H]2C(C)O[C@@H](OCc3ccccc3)C3OC(=O)OC32)cc1 (stereo partly drawn)")
200
>>> recorded_value("COCCCCC(O)C(O)C(=O)OC (stereo not drawn)")
100

I would be grateful if you could share the reported Amount of solvent required for completely dissolving the compound (Comp. Ex. 1) for `Cc1oc2ccccc2c(=O)c1C` . 40

Follow-up item: `COCOc1cc(OC)c(OC)c2c1C(=O)OC2` 400

Proceed to `CC(=O)Oc1ccc(OC(C)=O)c(OC(C)=O)c1` 200

Also need CO[C@H]1OC(COCc2ccccc2)[C@H](N=[N+]=[N-])CC1NS(=O)(=O)c1ccc(C)cc1 (stereo partly drawn) , thanks. 240

Further, for CO[C@H]1OC2COC(c3ccccc3)O[C@H]2C(O)C1NS(=O)(=O)c1ccc(C)cc1 (stereo partly drawn) ? 240

Same question, `O=C1Cc2ccccc2N1` this time 400

---

Examples of compounds with documented Addition amount of solvent until compound completely dissolved (Example 3) follow.
Assay: Dissolving capability: amount of solvent needed to completely dissolve 20 mg of compound
Format: physicochemical
Conditions: 20 mg compound, solvent 1,2,5-thiadiazole, room temperature, stirring

Below, each entry is followed by its recorded Addition amount of solvent until compound completely dissolved (Example 3) result.
>>> recorded_value("COCOc1cc(OCOC)c2c(c1)C(S(=O)(=O)c1ccccc1)OC2=O (stereo not drawn) [Compound 4]")
"1000 µL"
>>> recorded_value("O=C(O)CNC(=O)OCc1ccccc1 [Compound 5]")
"1000 µL"
>>> recorded_value("COCOc1cc(OC)c(OC)c2c1C(=O)OC2 [Compound 10]")
"200 µL"
>>> recorded_value("Cc1oc2ccccc2c(=O)c1C [Compound 17]")
"40 µL"
>>> recorded_value("CC/C=C(\\C)CN1C(=O)OC[C@H]1C(C)C [Compound 12]")
"200 µL"

Let's switch to this compound now.
Need Addition amount of solvent until compound completely dissolved (Example 3) of O=C1Cc2ccccc2N1 [Compound 1] , thanks. 100 µL

---

Overview of recorded Addition amount of solvent until compound completely dissolved (Example 3) for various compounds
Assay: Dissolving capability: amount of solvent needed to completely dissolve 20 mg of compound
Format: physicochemical
Settings: 20 mg compound, solvent 1,2,5-thiadiazole, room temperature, stirring
Respond numerically; units are µL and should not be typed.

A selection of reference data follows.
>>> recorded_value("CC(=O)Oc1ccc(OC(C)=O)c(OC(C)=O)c1 [Compound 7]")
100
>>> recorded_value("CO[C@H]1OC(COCc2ccccc2)[C@H](N=[N+]=[N-])CC1NS(=O)(=O)c1ccc(C)cc1 (stereo partly drawn) [Compound 2]")
140
>>> recorded_value("CC1(C)OCc2cc(OCCO)ccc2O1 [Compound 15]")
100
>>> recorded_value("O=C1C(OCc2ccccc2)=C[C@@H](CO)[C@@H]1CO [Compound 3]")
160
>>> recorded_value("Cc1ccc(S(=O)(=O)OCCC2(CCS(=O)(=O)c3ccccc3)OCCO2)cc1 [Compound 6]")
1000

Quick check: Addition amount of solvent until compound completely dissolved (Example 3) of COCCCCC(O)C(O)C(=O)OC (stereo not drawn) [Compound 16] ? 100

---

Experiment: Extracting activity: partition of compound between water phase and organic phase (TLC)
Type: physicochemical
Details: 2 mg compound in 100 μl 1,2,5-thiadiazole + 100 μl distilled water
Protocol: The extracting activity of 1,2,5-thiadiazole of the present invention was studied. A 2 mg of each of compounds 1 to 20 was dissolved in 100 μl of 1,2,5-thiadiazole, to which 100 μl of distilled water was added, and the system was subjected to separation operation. The ratio of the content of the compound in water phase against the counterpart in organic phase was determined using TLC, and the results are shown in Table 3. […]
reported.endpoint: Ratio of content of compound in water phase against organic phase (Example 4)

// known answers, use as guide
>>> recorded_value("CO[C@H]1OC2COC(c3ccccc3)O[C@H]2C(O)C1NS(=O)(=O)c1ccc(C)cc1 (stereo partly drawn)")
"1/15"
>>> recorded_value("Cc1ccc(S(=O)(=O)OCCC2(CCS(=O)(=O)c3ccccc3)OCCO2)cc1")
"0/100"

Read the next record carefully.
Dear colleague, I am looking for the recorded Ratio of content of compound in water phase against organic phase (Example 4) of the following molecule: `O=C1C(OCc2ccccc2)=C[C@@H](CO)[C@@H]1CO` 1/5

---

Each entry below carries its recorded Amount of solvent required for completely dissolving the compound (Comp. Ex. 1).
Assay: Dissolving capability: amount of solvent needed to completely dissolve 20 mg of compound
Type: physicochemical
Conditions: 20 mg compound, solvent chloroform, room temperature
Give just the numeric value; µL need not be written.

Consider the worked cases shown below.
>>> recorded_value("Cc1ccc(S(=O)(=O)OCCC2(CCS(=O)(=O)c3ccccc3)OCCO2)cc1")
2000
>>> recorded_value("CCCCCC(=O)CC(=O)NC1CCOC1=O (stereo not shown)")
100
>>> recorded_value("CC/C=C(\\C)CN1C(=O)OC[C@H]1C(C)C")
200
>>> recorded_value("O=C1C(OCc2ccccc2)=C[C@@H](CO)[C@@H]1CO")
200
>>> recorded_value("CC(=O)OCC1OCCC(OC(C)=O)[C@@H]1OC(C)=O (stereo partly shown)")
200

What does the record list as Amount of solvent required for completely dissolving the compound (Comp. Ex. 1) for CC(C)(C)[Si](C)(C)OCC1=CC2(OCCO2)C(O)C(O)C1=O (stereo not shown) ? 400

What do we get for `O=C1C=CC2(C=C1CO)OCCO2` ? 100

Now the molecule `O=C(O)CNC(=O)OCc1ccccc1` 2000

One more molecule: `CC1(C)OCc2cc(OCCO)ccc2O1` 100
